Hello, the source for this data is the supplement of paper PMC11865577, in case you need it.

- System: hsa-mir-191 loop
- Measurement notes: normalised indicator fluorescence (fraction of RNA + indicator signal without compound); higher = less displacement of indicator (weaker competition)
- Condition set: compound concentration: 5 uM; 30 min; indicator: TO-PRO-1 0.1 uM; RNA concentration: 0.1 uM
Measurement kind: normalised indicator fluorescence
Answers are plain numbers.

Reference set (6 entries):
Compound: O=C(NC(Cc1cc(=O)[nH]c2ccccc12)C(=O)O)c1ccc(Cl)cc1 (centres undefined) [Rebamipide]
Tested on: hsa-mir-191 loop
normalised indicator fluorescence: 1.07

Compound: O=CN1CC/C(=C/c2ccc3c(c2)OCO3)C1=O
Tested on: hsa-mir-191 loop
normalised indicator fluorescence: 1.04

Compound: Oc1cc(O)c2c(c1)O[C@H](c1ccc(O)c(O)c1)[C@@H](O)C2 [(+)-Catechin Hydrate]
Tested on: hsa-mir-191 loop
normalised indicator fluorescence: 0.971

Compound: O=C(O)C(O)Cc1ccc(O)c(O)c1 (centres undefined) [Sodium Danshensu]
Tested on: hsa-mir-191 loop
normalised indicator fluorescence: 0.941

Compound: OC[C@H]1O[C@@H](Oc2ccc(O)cc2)[C@H](O)[C@@H](O)[C@@H]1O [Arbutin]
Tested on: hsa-mir-191 loop
normalised indicator fluorescence: 0.981

Compound: CCOc1cc(C(=O)N2CCC(N3CCN(C)CC3)CC2)ccc1Nc1ncc2c(n1)N(C1CCCC1)c1ccccc1C(=O)N2C
Tested on: hsa-mir-191 loop
normalised indicator fluorescence: 1.09

Would you mind listing normalised indicator fluorescence for each of the following compounds?
1. CC(C)c1cc(C(C)C)c(CC(=O)NS(=O)(=O)Oc2c(C(C)C)cccc2C(C)C)c(C(C)C)c1 [Avasimibe]
2. COc1nccnc1NS(=O)(=O)c1ccc(NC(=O)/C=C/c2ccc([N+](=O)[O-])s2)cc1 [Necrosulfonamide]
3. O=c1ccc2ccc(O)cc2o1 [7-Hydroxycoumarin]

[1.05, 1.12, 1.06]

---

Give measured normalised indicator fluorescence for each item. Keep answers brief.
- System: hsa-mir-6850 loop
- Measurement notes: normalised indicator fluorescence (fraction of RNA + indicator signal without compound); higher = less displacement of indicator (weaker competition)
- Condition set: compound concentration: 5 uM; 30 min; indicator: TO-PRO-3 0.5 uM; RNA concentration: 0.5 uM
Where a name gives a salt, the structure may show the parent alone.

Reference set (5 entries):
Compound: CC1(C)OC(=O)C=C[C@]2(C)[C@H]3CC[C@@]4(C)[C@H](c5ccoc5)OC(=O)[C@H]5O[C@]54[C@]3(C)C(=O)C[C@@H]12
Measurement kind: normalised indicator fluorescence
Experimental value: 1.05
--
Compound: Cn1cc(-c2ccc3c(c2)CCN3C(=O)Cc2cccc(C(F)(F)F)c2)c2c(N)ncnc21
Measurement kind: normalised indicator fluorescence
Experimental value: 1.18
--
Compound: CN(C)C[C@@H]1CCn2cc(c3ccccc32)C2=C(C(=O)NC2=O)c2cn(c3ccccc23)CCO1 [Ruboxistaurin hydrochloride]
Measurement kind: normalised indicator fluorescence
Experimental value: 0.897
--
Compound: CC(C)=CCC[C@](C)(O[C@@H]1O[C@H](CO)[C@@H](O)[C@H](O)[C@H]1O)[C@H]1CC[C@]2(C)[C@@H]1[C@H](O)C[C@@H]1[C@@]3(C)CC[C@H](O)C(C)(C)[C@@H]3[C@@H](O[C@@H]3O[C@H](CO)[C@@H](O)[C@H](O)[C@H]3O[C@@H]3OC[C@@H](O)[C@H](O)[C@H]3O)C[C@]12C [Notoginsenoside R1]
Measurement kind: normalised indicator fluorescence
Experimental value: 1.01
--
Compound: COc1nccnc1NS(=O)(=O)c1ccc(NC(=O)/C=C/c2ccc([N+](=O)[O-])s2)cc1 [Necrosulfonamide]
Measurement kind: normalised indicator fluorescence
Experimental value: 1

Shift focus to the following entry.
Determine its reported normalised indicator fluorescence: `Oc1ccc(OCc2ccccc2)cc1`
1.06
